The origin of these recorded values is patent US9181234B2.

This listing pairs compounds with measured solubility at 24 h.
# protocol text: physchem
# measurement context: pH 7.4, aqueous buffer, kinetic from dmso stock, Solubility Range

Example entries and their recorded answers appear below.
# compound, solubility at 24 h
data = [
    ("CCNC(=O)Nc1nc2cc(-c3cnc(N4CCC(C)(C(=O)O)CC4)nc3)cc(-c3cnc(CC)cn3)c2s1", "12.5 to 400 µg/mL"),
    ("CCNC(=O)Nc1nc2cc(-c3cnc(N4CCC(C)(C(=O)O)CC4)nc3)cc(-c3cccc(C#N)n3)c2s1", "400 to 800 µg/mL"),
    ("CCNC(=O)Nc1nc2cc(-c3cnc(N4CCC(C)(C(=O)O)CC4)nc3)c(OC)c(Br)c2s1", "12.5 to 400 µg/mL"),
    ("CCNC(=O)Nc1nc2cc(-c3cnc(N4CCC(CC)(C(=O)O)CC4)nc3)cc(-c3cc(OC)ccn3)c2s1", "> 800 µg/mL"),
]

Input CCNC(=O)Nc1nc2cc(-c3cnc(N4CCCC4(C)C(=O)O)nc3)cc(-c3ccccn3)c2s1 (stereo not shown) , output reported solubility at 24 h. > 800 µg/mL

Input CCNC(=O)Nc1nc2cc(-c3cnc(N4CCC(COC)(C(=O)O)CC4)nc3)cc(-c3ccccn3)c2s1 , output reported solubility at 24 h. > 800 µg/mL

Input CCNC(=O)Nc1nc2cc(-c3cnc(N4CCC(C)(C(=O)O)C(C)C4)nc3)cc(-c3ccccn3)c2s1 (stereo not shown) , output reported solubility at 24 h. > 800 µg/mL

* * *

# protocol text: physchem
# measurement context: pH 7.4, aqueous buffer, kinetic from dmso stock, Solubility (pH 7.4)
measured parameter: solubility at 24 h (µg/mL)

(P) CCNC(=O)Nc1nc2cc(-c3cnc(N4CCC(C)(C(=O)O)CC4)nc3)cc(-c3nccnc3C)c2s1
(Q) CCNC(=O)Nc1nc2cc(-c3cnc(N4CCC(C)(C(=O)OCC)CC4)nc3)c(OC)cc2s1
(R) CCNC(=O)Nc1nc2cc(-c3cnc(N4CCC(C)(C(=O)O)CC4)nc3)cc(-c3ccc(F)c(C)n3)c2s1
(S) CCNC(=O)Nc1nc2cc(-c3cnc(N4CCC(OC)(C(=O)O)CC4)nc3)cc(-c3ccccn3)c2s1
Rank by solubility at 24 h (largest to smallest). Labels, ranked as asked. S, P, R, Q

(I) CCNC(=O)Nc1nc2cc(-c3cnc(N4CCC(O)(C(=O)OC)CC4)nc3)cc(-c3ccccn3)c2s1
(II) CCNC(=O)Nc1nc2cc(-c3cnc(N4CCC(C)(C(=O)O)CC4)nc3)cc(-c3ncc(CC)cn3)c2s1
(III) CCNC(=O)Nc1nc2cc(-c3cnc(N4CCC(C)(C(=O)O)CC4)nc3)nc(-c3ccccn3)c2s1
(IV) CCNC(=O)Nc1nc2cc(-c3cnc(N4CCC(CC)(C(=O)O)CC4)nc3)cc(N3CCOCC3)c2s1
Which order do these items take when sorted by rising solubility at 24 h? List them. Labels, ranked as asked. II, I, III, IV
(II: 12.5 µg/mL, I: 50 µg/mL, III: 200 µg/mL, IV: 400 µg/mL)

* * *

# protocol text: Pharmacokinetic assay, IV and oral PK profile, rat
# Format: in vivo
# measurement context: plasma, po, [AUCoral/AUCiv]×100%, 3 mg/kg, read-out: F (%) bioavailability
measured parameter: bioavailability (%)

Example entries and their recorded answers appear below.
# molecule, measured parameter, readout unit, reported measurement
data = [
    ("CCNC(=O)Nc1nc2cc(-c3cnc(N4CCC(C(=O)O)(C5CC5)CC4)nc3)cc(-c3ccccn3)c2s1 [Compound 143]", "bioavailability", "%", 10),
    ("CCNC(=O)Nc1nc2cc(-c3ccc(N4CCC(CC)(C(=O)O)CC4)nc3)cc(-c3ccccn3)c2s1 [Compound 103]", "bioavailability", "%", 76.5),
    ("C=CCC1(C(=O)O)CCN(c2ncc(-c3cc(-c4ccccn4)c4sc(NC(=O)NCC)nc4c3)cn2)CC1 [Compound 136]", "bioavailability", "%", 95.9),
]

(P) CCNC(=O)Nc1nc2cc(-c3ccc(N4CCC(C)(C(=O)O)CC4)nc3)cc(-c3ccccn3)c2s1 [Compound 4]
(Q) CCNC(=O)Nc1nc2cc(-c3cnc(N4CCC(CC)(C(=O)O)CC4)nc3)cc(-c3ccccn3)c2s1 [Compound 98]
(R) CCNC(=O)Nc1nc2cc(-c3cnc(N4CCC(C)(C(=O)O)CC4)nc3)cc(-c3cscn3)c2s1 [Compound 21]
(S) CCNC(=O)Nc1nc2cc(-c3cnc(N4CCC(COC)(C(=O)O)CC4)nc3)cc(-c3ccccn3)c2s1 [Compound 141]
Which order do these items take when sorted by rising bioavailability? List them. Labels, ranked as asked. S, R, P, Q
(S: 8.9%, R: 14.3%, P: 31%, Q: 80.4%)

* * *

# protocol text: physchem
# measurement context: pH 4, aqueous buffer, kinetic from dmso stock, Solubility Range (maximum solubility)
This listing pairs molecules with measured solubility at 24 h.

Example entries and their recorded answers appear below.
# molecule, solubility at 24 h
measured = [
    ("CCNC(=O)Nc1nc2cc(-c3cnc(N4CCC(C)(C(=O)O)CC4)nc3)cc(-c3nccc(N(C)C)c3C#N)c2s1 [Compound 71]", "12.5 to 400 µg/mL"),
    ("CCNC(=O)Nc1nc2cc(-c3cnc(NC4COC(C)(C(=O)OCC)OC4)nc3)cc(-c3ccccn3)c2s1 (stereo not drawn) [Compound 216]", "12.5 to 400 µg/mL"),
]

Turning now to a further molecule:
Input CCNC(=O)Nc1nc2cc(-c3cnc(N4CCC(C)(C(=O)O)CC4)nc3)cc(-c3cc(C)c(C#N)cn3)c2s1 [Compound 92] , output reported solubility at 24 h. 12.5 to 400 µg/mL

* * *

This listing pairs compounds with measured solubility at 24 h.
# protocol text: physchem
# measurement context: pH 7.4, aqueous buffer, kinetic from dmso stock, Solubility Range

Example entries and their recorded answers appear below.
# substance smiles, solubility at 24 h
rows = [
    ("CCNC(=O)Nc1nc2cc(-c3cnc(N4CCC(C)(C(=O)O)CC4)nc3)cc(-c3ccc(F)c(C)n3)c2s1", "12.5 to 400 µg/mL"),
    ("CCNC(=O)Nc1nc2cc(-c3cnc(N4CCC(C)(C(=O)O)CC4)nc3)cc(-n3cccn3)c2s1", "> 800 µg/mL"),
    ("CCNC(=O)Nc1nc2cc(-c3cnc(N4CCC(C)(C(=O)O)CC4)nc3)ccc2s1", "12.5 to 400 µg/mL"),
    ("CCNC(=O)Nc1nc2cc(-c3cnc(N4CCC(C)(C(=O)O)CC4)nc3)cc(-c3cc(OCCOC)nc(C)n3)c2s1", "> 800 µg/mL"),
    ("CCNC(=O)Nc1nc2cc(-c3cnc(N4CCC(C)(C(=O)O)CC4)nc3)cc(-c3ncc(C#N)cc3C)c2s1", "> 800 µg/mL"),
]

Input CCNC(=O)Nc1nc2cc(-c3cnc(N4CCC(C)(C(=O)O)CC4)nc3)cc(COCCOC)c2s1 , output reported solubility at 24 h. > 800 µg/mL

Input CCNC(=O)Nc1nc2cc(-c3cnc(N4CCC(C)(C(=O)O)CC4)nc3)cc(/C(C)=N/OC)c2s1 , output reported solubility at 24 h. > 800 µg/mL

* * *

# protocol text: physchem
# measurement context: pH 7.4, aqueous buffer, kinetic from dmso stock, Solubility Range
This listing pairs compounds with measured solubility at 24 h.

Example entries and their recorded answers appear below.
# compound, solubility at 24 h
rows = [
    ("CCNC(=O)Nc1nc2cc(-c3cnc(N4CCCC(C)(C(=O)O)CC4)nc3)cc(-c3ccccn3)c2s1 (stereo not shown)", "> 800 µg/mL"),
    ("CCNC(=O)Nc1nc2cc(-c3cnc(N4CCC(C)(C(=O)O)CC4)nc3)cc(-c3nccc(OC)n3)c2s1", "12.5 to 400 µg/mL"),
    ("CCNC(=O)Nc1nc2cc(-c3cnc(N4CCC(CC)(C(=O)O)CC4)nc3)cc(-c3ccccn3)c2s1", "> 800 µg/mL"),
]

Turning now to a further compound:
Input CCNC(=O)Nc1nc2cc(-c3cnc(N4CCC(OC)(C(=O)O)CC4)nc3)cc(-c3ccccn3)c2s1 , output reported solubility at 24 h. 400 to 800 µg/mL

* * *

# protocol text: Turbidimetric assay: determination of solubility
# measurement context: pH 7.4, aqueous buffer, kinetic from dmso stock, Solubility (pH 7.4), pH 7.4 (PBS), 24 hours at room temperature, turbidimetric
measured parameter: solubility at 24 h (µg/mL)
Give just the numeric value; µg/mL need not be written.

Input CCNC(=O)Nc1nc2cc(-c3cnc(N4CCC(CC)(C(=O)O)CC4)nc3)cc(-c3ccccn3)c2[nH]1 [Compound 229] , output reported solubility at 24 h. 100
